- Tested on: PC-3 prostate
- test description: NCI tumour cell line growth inhibition, 48 h
Kindly return Condition met if reported TGI is no lower than 3 µM; return Condition not met if it is lower.

Answered cases to consult:
INSERT INTO measurements (molecule, category) VALUES
  ('O=C(COc1ccccc1)NNc1ccccc1', 'Condition met'),
  ('C=C(CN(C)C)C(=O)c1ccccc1OC', 'Condition met'),
  ('c1ccc(/C(=N\Nc2nc3ccccc3[nH]2)c2ccccn2)cc1', 'Condition met'),
  ('O=C1N[C@H]2C(=O)c3c(Br)sc(Br)c3[C@H]2O1', 'Condition met'),
  ('Cc1ccc(-c2cc(C(=O)Nc3ccc(S(=O)(=O)N4CCCCC4)cc3)[nH]n2)c(O)c1', 'Condition met'),
  ('ClCc1ccccc1Cn1cnc2nc(Cl)nc(Cl)c21', 'Condition not met'),
  ('Clc1cc(Br)ccc1-c1ccc(CNCC2CCNCC2)o1', 'Condition met'),
  ('CC1(C)C(=O)/C=C\C(=O)C(C)(C)C2=CC=C(O2)C(C)(C)C(=O)C(Br)C(Br)C(=O)C(C)(C)C2=CC=C1O2 (stereo unspecified)', 'Condition met'),
  ('COc1cc(OCCN(C)C)c2[nH]c(C(=O)N3CC(CCl)c4c3cc(N)c3ccccc43)cc2c1 (stereo unspecified)', 'Condition not met');

Next up:
Query :: Entry COC(=O)CN(CC(=O)NCCNC(=O)OC(C)(C)C)C1CCCCC1N(CC(=O)OC)CC(=O)OC (stereo unspecified) : is its TGI no less than 3 µM?
Result :: Condition met
